Source listed as paper PMC4425807.

experimentDescription: Brain drug concentrations 60 min after single oral dose (LC-MS/MS)
Assay type: in vivo, rat
conditionDetails: Sprague-Dawley, rat, brain, oral, 1 mg/kg, phentermine 1 mg/kg PO alone, 60 min, rat, AR630 study, mean ± SEM; read-out: Brain concentration, alone
Description: In vivo methods employed for pharmacokinetic studies were identical to those described for food intake studies except that after dosing, rats were not placed into new cages with grid floors. […] Brain samples were thawed on ice, placed into 50 mL plastic conical tubes, and two volumes of purified water/gram of brain was added. […] Supernatants were analysed for lorcaserin, AR630, phentermine, dexfenfluramine, and the major metabolite of dexfenfluramine, norfenfluramine. […]
readoutName: concentration at 60 min (ng/g)
// note: answer is a bare numeric in ng/g

Item CC(C)(N)Cc1ccccc1 : provide concentration at 60 min
226

----------
experimentalTarget: 5-HT2C (Homo sapiens, UniProt P28335)
Sequence (P28335 33-458): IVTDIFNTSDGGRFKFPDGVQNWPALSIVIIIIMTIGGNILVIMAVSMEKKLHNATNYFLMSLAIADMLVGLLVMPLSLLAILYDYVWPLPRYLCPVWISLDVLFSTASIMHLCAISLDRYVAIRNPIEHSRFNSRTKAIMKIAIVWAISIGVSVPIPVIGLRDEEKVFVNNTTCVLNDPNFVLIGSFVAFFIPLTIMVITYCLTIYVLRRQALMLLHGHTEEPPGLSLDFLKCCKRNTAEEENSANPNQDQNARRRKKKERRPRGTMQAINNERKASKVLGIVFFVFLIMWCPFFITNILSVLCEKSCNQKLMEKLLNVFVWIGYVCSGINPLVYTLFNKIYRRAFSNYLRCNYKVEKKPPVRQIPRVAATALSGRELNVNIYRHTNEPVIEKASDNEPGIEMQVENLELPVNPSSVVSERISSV
readoutName: pKi
In simple prose, pKi is minus the logarithm base ten of a concentration in moles per litre.

Write pKi of C[C@@H]1CNCCN1c1cc(Cl)ccc1F ; system used: 5-HT2C (Homo sapiens, UniProt P28335)
8.40
